Molecular target: IRAK4 (Homo sapiens, UniProt Q9NWZ3)
Construct: Degradation of IRAK4 in OCI-LY10 was quantitatively measured using Meso Scale Discovery technology; endogenous in cells; host or cells: OCI-LY10
Sequence (Q9NWZ3 whole entry): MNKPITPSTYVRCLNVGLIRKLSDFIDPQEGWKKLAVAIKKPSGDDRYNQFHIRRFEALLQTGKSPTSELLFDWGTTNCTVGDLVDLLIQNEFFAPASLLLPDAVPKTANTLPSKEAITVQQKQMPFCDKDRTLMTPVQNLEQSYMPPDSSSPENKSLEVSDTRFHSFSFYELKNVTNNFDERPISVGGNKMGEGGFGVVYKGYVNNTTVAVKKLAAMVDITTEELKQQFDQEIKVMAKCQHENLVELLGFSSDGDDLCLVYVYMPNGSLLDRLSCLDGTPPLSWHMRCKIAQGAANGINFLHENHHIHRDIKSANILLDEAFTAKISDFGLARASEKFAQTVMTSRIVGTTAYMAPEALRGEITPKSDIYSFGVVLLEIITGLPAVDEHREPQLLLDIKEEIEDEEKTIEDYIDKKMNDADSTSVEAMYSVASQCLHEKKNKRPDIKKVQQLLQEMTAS
Experiment: IRAK4 MSD Degradation in OCI-LY10
Format: cell-based
Conditions: OCI-LY10 cells, 24 hrs incubation, MSD; read-out: IRAK4 degradation in OCI-LY10 at 24 hrs: DC50

molecule: C[C@@H]1CN(C[C@H]2CC[C@H](n3cc(NC(=O)c4cnn5ccc(N6C[C@H]7C[C@@H]6CO7)nc45)c(C(F)F)n3)CC2)CC[C@H]1OCC#Cc1cccc2c(N3CCC(=O)NC3=O)cncc12 [I-55]
measurement-target: IRAK4 (Homo sapiens, UniProt Q9NWZ3)
DC50: > 200 nM
--
molecule: Cn1c(=O)n(C2CCC(=O)NC2=O)c2cccc(C#CCO[C@@H]3CCN(C[C@H]4CC[C@H](n5cc(NC(=O)c6cnn7ccc(N8C[C@H]9C[C@@H]8CO9)nc67)c(C(F)F)n5)CC4)C[C@@H]3F)c21 (some centres unmarked) [I-22]
measurement-target: IRAK4 (Homo sapiens, UniProt Q9NWZ3)
DC50: > 200 nM
--
molecule: CN(C[C@H]1CC[C@H](n2cc3cc(NC(=O)c4cccc(C(F)(F)F)n4)ccc3n2)CC1)C1CCN(c2cccc3c2n(C)c(=O)n3C2CCC(=O)NC2=O)CC1F (some centres unmarked) [I-555]
measurement-target: IRAK4 (Homo sapiens, UniProt Q9NWZ3)
DC50: 10 to 100 nM
--
molecule: Cn1c(=O)n(C2CCC(=O)NC2=O)c2cccc(C#CCOC3CCN(C[C@H]4CC[C@H](n5cc(NC(=O)c6cnn7ccc(N8CCNCC8)nc67)c(C(F)F)n5)CC4)CC3)c21 (some centres unmarked) [I-308]
measurement-target: IRAK4 (Homo sapiens, UniProt Q9NWZ3)
DC50: < 10 nM
--
molecule: Cn1c(=O)n(C2CCC(=O)NC2=O)c2cccc(N3CCN(C4CCN(C[C@H]5CC[C@H](n6cc(NC(=O)c7cnn8ccc(N9C[C@H]%10C[C@@H]9CO%10)nc78)c(C(F)F)n6)CC5)CC4(F)F)CC3)c21 (some centres unmarked) [I-701]
measurement-target: IRAK4 (Homo sapiens, UniProt Q9NWZ3)
DC50: < 10 nM
--
molecule: CN(c1cccc2c1n(C)c(=O)n2C1CCC(=O)NC1=O)C1CN(C[C@H]2CC[C@H](n3cc4cc(NC(=O)c5cccc(C(F)(F)F)n5)ncc4n3)CC2)C1 (some centres unmarked) [I-698]
measurement-target: IRAK4 (Homo sapiens, UniProt Q9NWZ3)
DC50: > 200 nM
--
molecule: Cn1c(=O)n(C2CCC(=O)NC2=O)c2cccc(C#CCOC3CCN(C(C#N)[C@H]4CC[C@H](n5cc(NC(=O)c6cnn7ccc(N8C[C@H]9C[C@@H]8CO9)nc67)c(C(F)F)n5)CC4)CC3)c21 (some centres unmarked) [I-193]
measurement-target: IRAK4 (Homo sapiens, UniProt Q9NWZ3)
DC50: > 200 nM
--
molecule: Cn1c(=O)n(C2CCC(=O)NC2=O)c2cccc(C#CCN3CCN(C[C@H]4CC[C@H](n5cc(NC(=O)c6cnn7ccc(C8C[C@H]9C[C@@H]8CO9)nc67)c(C(F)F)n5)CC4)CC3)c21 (some centres unmarked) [I-105]
measurement-target: IRAK4 (Homo sapiens, UniProt Q9NWZ3)
DC50: > 200 nM
--
molecule: O=C1CCN(c2cccc(C#CCOC3CCN(C[C@H]4CC[C@H](n5cc(NC(=O)c6cnn7ccc(N8C[C@H]9C[C@@H]8CO9)nc67)c(C(F)F)n5)CC4)CC3)c2)C(=O)N1 [I-209]
measurement-target: IRAK4 (Homo sapiens, UniProt Q9NWZ3)
DC50: > 200 nM
--
molecule: C[C@@H]1CN(c2ccn3ncc(C(=O)Nc4cn([C@H]5CC[C@H](CN6CCN(CC#Cc7cccc8c7n(C)c(=O)n8C7CCC(=O)NC7=O)CC6)CC5)nc4C(F)F)c3n2)CCO1 (some centres unmarked) [I-406]
measurement-target: IRAK4 (Homo sapiens, UniProt Q9NWZ3)
DC50: < 10 nM
--
molecule: COc1ccc2c(c1N1CCN(CC3CCC(n4cc5cc(NC(=O)c6cccc(C#N)n6)ccc5n4)CC3)CC1)n(C)c(=O)n2C1CCC(=O)NC1=O (centres unmarked) [I-687]
measurement-target: IRAK4 (Homo sapiens, UniProt Q9NWZ3)
DC50: < 10 nM
--
molecule: Cn1c(=O)n(C2CCC(=O)NC2=O)c2cccc(C#CCC3CCN(C[C@H]4CC[C@H](n5cc(NC(=O)c6cnn7ccc(N8C[C@H]9C[C@@H]8CO9)nc67)c(C(F)F)n5)CC4)CC3(F)F)c21 (some centres unmarked) [I-374]
measurement-target: IRAK4 (Homo sapiens, UniProt Q9NWZ3)
DC50: > 200 nM
--
molecule: Cn1c(=O)n(C2CCC(=O)NC2=O)c2cccc(C#CCOC3CCN(C[C@H]4CC[C@H](n5cc(NC(=O)c6cnn7ccc(N8CCC9(COC9)C8)nc67)c(C(F)F)n5)CC4)CC3)c21 (some centres unmarked) [I-330]
measurement-target: IRAK4 (Homo sapiens, UniProt Q9NWZ3)
DC50: > 200 nM
--
molecule: Cn1c(=O)n(C2CCC(=O)NC2=O)c2cccc(C#CCN3CCN(C[C@H]4CC[C@H](n5cc(NC(=O)c6cnn7ccc(N8CCC(C)(C)CC8)nc67)c(C(F)F)n5)CC4)CC3)c21 (some centres unmarked) [I-227]
measurement-target: IRAK4 (Homo sapiens, UniProt Q9NWZ3)
DC50: 10 to 100 nM
--
molecule: COc1nc(NC(=O)c2cccc(C(F)(F)F)n2)cc2cn([C@H]3CC[C@H](CN4CC[C@H](c5cccc6c5n(C)c(=O)n6C5CCC(=O)NC5=O)[C@@H](F)C4)CC3)nc12 (some centres unmarked) [I-774]
measurement-target: IRAK4 (Homo sapiens, UniProt Q9NWZ3)
DC50: > 200 nM
--
molecule: Cn1c(=O)n(C2CCC(=O)NC2=O)c2cccc(C#CCN3CCN(C[C@H]4CC[C@H](n5cc(NC(=O)c6cnn7ccc(N8CCN(CC(F)(F)F)CC8)nc67)c(C(F)F)n5)CC4)CC3)c21 (some centres unmarked) [I-410]
measurement-target: IRAK4 (Homo sapiens, UniProt Q9NWZ3)
DC50: > 200 nM
--
molecule: CN1CCN(c2ccn3ncc(C(=O)Nc4cn([C@H]5CC[C@H](CN6CCN(CC#Cc7cccc8c7n(C)c(=O)n8C7CCC(=O)NC7=O)CC6)CC5)nc4C(F)F)c3n2)CC1C(F)F (some centres unmarked) [I-411]
measurement-target: IRAK4 (Homo sapiens, UniProt Q9NWZ3)
DC50: > 200 nM
--
molecule: Cn1c(=O)n(C2CCC(=O)NC2=O)c2cccc(C#CCOC3CCN(C[C@H]4CC[C@H](n5cc(NC(=O)c6cncc(C#N)c6)c(C(F)F)n5)CC4)CC3)c21 (some centres unmarked) [I-264]
measurement-target: IRAK4 (Homo sapiens, UniProt Q9NWZ3)
DC50: > 200 nM
--
molecule: Cn1c(=O)n(C2CCC(=O)NC2=O)c2cccc([C@@H]3CCN(C[C@H]4CC[C@H](n5cc6cc(NC(=O)c7cccc(C#N)n7)c(C(C)(C)O)cc6n5)CC4)C[C@@H]3F)c21 (some centres unmarked) [I-648]
measurement-target: IRAK4 (Homo sapiens, UniProt Q9NWZ3)
DC50: > 200 nM
--
molecule: Cn1c(=O)n(C2CCC(=O)NC2=O)c2cccc([C@H]3CC[C@H](CN4CCN(C[C@H]5CC[C@H](n6cc(NC(=O)c7cnn8ccc(N9C[C@H]%10C[C@@H]9CO%10)nc78)c(C(F)F)n6)CC5)CC4)CC3)c21 (some centres unmarked) [I-362]
measurement-target: IRAK4 (Homo sapiens, UniProt Q9NWZ3)
DC50: > 200 nM
